Provenance of the data: patent US10844077B2

Listed here: items and their measured % change of MS signal compared to control sample.
target: MLK3 (Homo sapiens (Human), UniProt Q16584); assay: KINATIV assay; assay type: cell-based; settings: 1 μM, 90 minutes, BCWM.1 cells
Sequence (Q16584 whole entry): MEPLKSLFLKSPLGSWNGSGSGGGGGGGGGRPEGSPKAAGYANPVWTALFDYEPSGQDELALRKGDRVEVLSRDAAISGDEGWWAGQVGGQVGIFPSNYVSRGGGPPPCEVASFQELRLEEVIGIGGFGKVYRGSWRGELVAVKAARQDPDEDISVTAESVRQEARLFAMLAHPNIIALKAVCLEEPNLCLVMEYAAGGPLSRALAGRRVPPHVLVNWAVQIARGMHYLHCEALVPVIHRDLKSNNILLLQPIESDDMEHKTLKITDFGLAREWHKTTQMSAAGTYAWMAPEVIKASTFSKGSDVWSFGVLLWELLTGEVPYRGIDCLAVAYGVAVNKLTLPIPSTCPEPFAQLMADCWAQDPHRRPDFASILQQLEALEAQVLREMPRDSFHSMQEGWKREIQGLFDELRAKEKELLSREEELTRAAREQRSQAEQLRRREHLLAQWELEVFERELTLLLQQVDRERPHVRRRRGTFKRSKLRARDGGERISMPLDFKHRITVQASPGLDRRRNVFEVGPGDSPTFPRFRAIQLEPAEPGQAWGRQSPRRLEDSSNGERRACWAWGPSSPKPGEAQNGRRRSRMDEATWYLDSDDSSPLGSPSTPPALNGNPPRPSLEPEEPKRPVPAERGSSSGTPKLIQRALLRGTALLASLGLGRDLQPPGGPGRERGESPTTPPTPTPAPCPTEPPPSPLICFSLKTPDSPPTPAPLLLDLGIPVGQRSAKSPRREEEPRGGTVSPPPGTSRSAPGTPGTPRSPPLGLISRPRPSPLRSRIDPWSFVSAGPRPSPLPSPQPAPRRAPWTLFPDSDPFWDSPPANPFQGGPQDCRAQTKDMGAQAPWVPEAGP
Reported Property: % change of MS signal compared to control sample

Compound	Result
C=CC(=O)N1CCC(Cn2ccc(Nc3ncc(C(=O)Nc4c(C)cccc4Cl)s3)n2)C1 (stereo not shown)	−18.0%
C=CC(=O)N1CCC(CNc2nccc(Nc3ncc(C(=O)Nc4c(C)cccc4C)s3)n2)C1 (racemic)	11.7%
C=CC(=O)N1CCCCC(Nc2nccc(Nc3ncc(C(=O)Nc4c(C)cccc4C)s3)n2)C1 (stereo not shown)	−4.6%
C=CC(=O)N1CC[C@@H](Nc2nccc(Nc3ncc(C(=O)Nc4c(C)cccc4C)s3)n2)C1	−27.2%

====

target: PHKg2 (Homo sapiens (Human)); experiment: KINATIV assay; assay type: cell-based; conditions: 1 μM, 90 minutes, BCWM.1 cells
Sequence (P15735 whole entry): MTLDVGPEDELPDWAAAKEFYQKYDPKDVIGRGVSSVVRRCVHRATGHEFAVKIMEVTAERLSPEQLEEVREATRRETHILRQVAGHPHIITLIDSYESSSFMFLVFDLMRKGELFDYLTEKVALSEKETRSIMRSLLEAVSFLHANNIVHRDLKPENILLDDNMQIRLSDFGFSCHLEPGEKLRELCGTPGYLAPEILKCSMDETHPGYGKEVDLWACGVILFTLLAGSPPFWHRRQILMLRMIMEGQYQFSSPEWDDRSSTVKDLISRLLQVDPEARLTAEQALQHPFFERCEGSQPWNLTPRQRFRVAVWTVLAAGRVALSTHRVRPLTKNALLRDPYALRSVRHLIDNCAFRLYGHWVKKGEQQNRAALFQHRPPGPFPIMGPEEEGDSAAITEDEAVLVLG
Measured % change of MS signal compared to control sample of individual entries
Reported Property: % change of MS signal compared to control sample (%)

Molecule	Recorded Number
C=CC(=O)N1CCCCC(Nc2nccc(Nc3ncc(C(=O)Nc4c(C)cccc4C)s3)n2)C1 (stereo not shown)	0.6
C=CC(=O)N1CC[C@@H](Nc2nccc(Nc3ncc(C(=O)Nc4c(C)cccc4C)s3)n2)C1	−15.6
C=CC(=O)N1CCC(CNc2nccc(Nc3ncc(C(=O)Nc4c(C)cccc4C)s3)n2)C1 (racemic)	6.4
C=CC(=O)N1CCC(Cn2ccc(Nc3ncc(C(=O)Nc4c(C)cccc4Cl)s3)n2)C1 (stereo not shown)	−9.1

====

Reported % change of MS signal compared to control sample by item:
System: MAP3K15, MAP3K5, MAP3K6
Experiment: KINATIV assay
Type: cell-based
Conditions: 1 μM, 90 minutes, BCWM.1 cells
Method: The cells were harvested and lysed. The lysates were directly labeled with an ATP-biotin probe. Bound kinases were identified and quantitated by ACTIVX as described in Patricelli et al., Biochemistry, 2007, 46(2): 350-358. The compounds were tested in duplicates against duplicate or quadruplicate control samples.
Reported Property: % change of MS signal compared to control sample (%)

Compound	Recorded Number
C=CC(=O)N1CCC(Cn2ccc(Nc3ncc(C(=O)Nc4c(C)cccc4Cl)s3)n2)C1 (stereo not shown) [II-1]	7.5
C=CC(=O)N1CCCCC(Nc2nccc(Nc3ncc(C(=O)Nc4c(C)cccc4C)s3)n2)C1 (stereo not shown) [Example I-7]	4.0
C=CC(=O)N1CC[C@@H](Nc2nccc(Nc3ncc(C(=O)Nc4c(C)cccc4C)s3)n2)C1 [Example I-4]	2.8
C=CC(=O)N1CCC(CNc2nccc(Nc3ncc(C(=O)Nc4c(C)cccc4C)s3)n2)C1 (racemic) [Example I-8]	2.2

====

molecular target: MAP2K7 (Homo sapiens (Human), UniProt O14733); test: KINATIV assay; type: cell-based; details: 1 μM, 90 minutes, BCWM.1 cells
Sequence (O14733 whole entry): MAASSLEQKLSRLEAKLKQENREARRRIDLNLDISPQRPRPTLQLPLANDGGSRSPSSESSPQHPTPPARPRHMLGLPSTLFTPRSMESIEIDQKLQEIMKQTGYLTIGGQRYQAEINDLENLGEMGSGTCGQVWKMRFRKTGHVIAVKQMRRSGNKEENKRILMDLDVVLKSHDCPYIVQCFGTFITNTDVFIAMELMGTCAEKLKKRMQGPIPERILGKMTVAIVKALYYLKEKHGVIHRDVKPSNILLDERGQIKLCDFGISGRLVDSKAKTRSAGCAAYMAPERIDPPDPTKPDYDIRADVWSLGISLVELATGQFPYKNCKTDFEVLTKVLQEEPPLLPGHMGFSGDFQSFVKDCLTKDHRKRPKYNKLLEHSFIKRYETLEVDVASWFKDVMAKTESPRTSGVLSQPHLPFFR
Reported Property: % change of MS signal compared to control sample (%)

Molecule	Value Unit	Recorded Number
C=CC(=O)N1CCC(Cn2ccc(Nc3ncc(C(=O)Nc4c(C)cccc4Cl)s3)n2)C1 (stereo not shown)	%	−0.6
C=CC(=O)N1CCCCC(Nc2nccc(Nc3ncc(C(=O)Nc4c(C)cccc4C)s3)n2)C1 (stereo not shown)	%	11.2
C=CC(=O)N1CCC(CNc2nccc(Nc3ncc(C(=O)Nc4c(C)cccc4C)s3)n2)C1 (racemic)	%	−7.5
C=CC(=O)N1CC[C@@H](Nc2nccc(Nc3ncc(C(=O)Nc4c(C)cccc4C)s3)n2)C1	%	−10.1
